Target: T1, human A-beta(1-40) peptide, monomeric (BAM) (human, biotin at the C-terminus in capture ELISA, SPR and TR-FRET; not biotinylated where coated directly (Example 7))
T1 construct: synthetic peptide (Anaspec), TFA/HFIP treated to give monomer; also called monomeric A-beta
Assay: TR-FRET competition, mean IC50
pIC50: −log10 of the molar value.
outcomeMeasure: pIC50

ABII052 (VHH, humanized variant of ABII050) VHH: EVQLLESGGGLVQPGGSLRLSCAASGRTFNNYNMGWFRQAPGKGREFVAAVSRSGVSTYYADSVKGRFTISRDNSKNAVYLQMNSLRPEDTAIYYCGAAYRGTAINVRRSYDSWGQGTLVTVSS
7.72
ABII032 (VHH, humanized variant of ABII002) VHH: EVQLLESGGGLVQPGGSLRLSCVHSGPTFRTDTMGWFRQAPGKGREFVAAVTWNSGRINYADSVKGRFTISRDNSKNAAYLQMNSLRPEDTAVYYCAAHRFVVGGNRVEDWRYWGQGTLVTVSS
8.31
ABII019 (VHH, humanized variant of ABII002) VHH: EVQLLESGGGLVQPGGSLRLSCAHSGPTFRTDTMGWFRQAPGKGREFVAAVTWNSGRINYADSVKGRFTISRDNSKNTVYLQMNSLRPEDTAVYYCAAHRFVVGGNRVEDWRYWGQGTLVTVSS
7.85
ABII057 (VHH, humanized variant of ABII050) VHH: EVQLLESGGGLVQPGGSLRLSCAASGRTFNNYNMGWFRQAPGKGREFVAAVSRSGVSTYYADSVKGRFTISRDNSKNTVYLQMNSLRPEDTAVYYCAAAYRGTAINVRRSYDSWGQGTLVTVSS
7.34
ABII011 (VHH, humanized variant of ABII002) VHH: EVQLLESGGGLVLPGGSLRLSCVHSGPTFRTDTMGWFRQAPGKGREFVAAVTWNSGRINYADSVKGRFTVSRDNTRNALYLQMSGLKDEDTAVYYCTAHRFVVGGNRVEDWRYWGQGTLVTVSS
7.62

1. ABII021 (VHH, humanized variant of ABII002) VHH: EVQLLESGGGLVQPGGSLRLSCAHSGPTFRTDTMGWFRQAPGKGREFVAAVTWNSGRINYADSVKGRFTISRDNSKNAVYLQMNSLRPEDTAVYYCAAHRFVVGGNRVEDWRYWGQGTLVTVSS
2. ABII012 (VHH, humanized variant of ABII002) VHH: EVQLLESGGGLVLPGGSLRLSCVHSGPTFRTDTMGWFRQAPGKGREFVAAVTWNSGRINYADSVKGRFTVSRDNTRNAAYLQMNGLKDEDTAVYYCTAHRFVVGGNRVEDWRYWGQGTLVTVSS
Q. Record comparison, field pIC50: mark the lower of 1 and 2 . State your choice using its label.
A. 1
